Biological target: E1p-h (Homo sapiens, UniProt P08559+P11177)
Sequence (P08559 30-390): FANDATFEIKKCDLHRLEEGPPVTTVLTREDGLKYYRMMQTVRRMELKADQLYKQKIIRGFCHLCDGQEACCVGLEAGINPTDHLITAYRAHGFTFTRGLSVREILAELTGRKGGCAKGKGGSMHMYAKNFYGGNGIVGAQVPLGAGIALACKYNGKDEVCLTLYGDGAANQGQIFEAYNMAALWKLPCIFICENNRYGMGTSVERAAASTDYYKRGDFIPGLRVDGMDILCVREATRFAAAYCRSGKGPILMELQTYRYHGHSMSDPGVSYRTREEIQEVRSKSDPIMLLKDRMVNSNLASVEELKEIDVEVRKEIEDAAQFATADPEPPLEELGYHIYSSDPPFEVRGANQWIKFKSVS
Sequence (P11177 31-359): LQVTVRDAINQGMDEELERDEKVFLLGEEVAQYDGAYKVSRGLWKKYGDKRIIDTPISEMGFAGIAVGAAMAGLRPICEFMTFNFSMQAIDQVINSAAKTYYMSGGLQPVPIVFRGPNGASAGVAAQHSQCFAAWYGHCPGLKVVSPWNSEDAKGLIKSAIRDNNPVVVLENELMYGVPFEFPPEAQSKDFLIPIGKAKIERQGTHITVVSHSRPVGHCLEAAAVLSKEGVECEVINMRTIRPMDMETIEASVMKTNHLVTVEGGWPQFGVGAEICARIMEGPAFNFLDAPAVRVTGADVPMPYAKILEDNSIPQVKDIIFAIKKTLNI
Experiment: Quenching of intrinsic fluorescence of E1p-h
Type: binding
reportedMetric: pKd
Just so you know, pKd here is -log10 of the concentration in molar units; reply with that number alone.

Read off the recorded pKd for Cc1ncc(C[n+]2csc(CCOP(=O)([O-])OP(=O)(O)O)c2C)c(N)n1 [ThDP, thiamin diphosphate]
5.14

----------
Molecular target: DXPS (Escherichia coli, UniProt P77488)
Sequence (P77488 whole entry): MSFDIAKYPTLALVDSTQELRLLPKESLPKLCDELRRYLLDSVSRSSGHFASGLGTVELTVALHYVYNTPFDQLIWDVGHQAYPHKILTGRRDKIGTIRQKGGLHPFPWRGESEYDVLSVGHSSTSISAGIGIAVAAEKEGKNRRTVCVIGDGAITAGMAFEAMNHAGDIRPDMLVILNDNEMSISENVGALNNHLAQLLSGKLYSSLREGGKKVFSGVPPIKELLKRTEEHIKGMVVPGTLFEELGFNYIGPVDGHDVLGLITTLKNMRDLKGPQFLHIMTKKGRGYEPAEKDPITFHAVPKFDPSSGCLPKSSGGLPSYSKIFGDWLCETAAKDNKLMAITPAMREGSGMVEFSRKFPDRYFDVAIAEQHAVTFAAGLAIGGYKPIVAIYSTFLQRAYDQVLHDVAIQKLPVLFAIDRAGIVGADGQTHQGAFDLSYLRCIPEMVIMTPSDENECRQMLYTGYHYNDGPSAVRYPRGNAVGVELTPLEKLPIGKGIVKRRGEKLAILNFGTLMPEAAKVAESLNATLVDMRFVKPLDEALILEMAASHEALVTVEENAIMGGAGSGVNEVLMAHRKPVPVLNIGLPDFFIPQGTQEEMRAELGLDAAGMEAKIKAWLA
Test: biochemical
reportedMetric: Kd (µM)
Provide only the numeric value, understood in µM.

Write down the reported Kd (system: DXPS (Escherichia coli, UniProt P77488)) of Cc1ncc(C[n+]2csc(CCOP(=O)([O-])OP(=O)(O)O)c2C)c(N)n1 [ThDP, thiamin diphosphate]
3.5
